- Tested Target: recombinant rat α2β3γ2 receptors (Rattus norvegicus, UniProt P18508+P23576)
- Sequence (P23576 29-451): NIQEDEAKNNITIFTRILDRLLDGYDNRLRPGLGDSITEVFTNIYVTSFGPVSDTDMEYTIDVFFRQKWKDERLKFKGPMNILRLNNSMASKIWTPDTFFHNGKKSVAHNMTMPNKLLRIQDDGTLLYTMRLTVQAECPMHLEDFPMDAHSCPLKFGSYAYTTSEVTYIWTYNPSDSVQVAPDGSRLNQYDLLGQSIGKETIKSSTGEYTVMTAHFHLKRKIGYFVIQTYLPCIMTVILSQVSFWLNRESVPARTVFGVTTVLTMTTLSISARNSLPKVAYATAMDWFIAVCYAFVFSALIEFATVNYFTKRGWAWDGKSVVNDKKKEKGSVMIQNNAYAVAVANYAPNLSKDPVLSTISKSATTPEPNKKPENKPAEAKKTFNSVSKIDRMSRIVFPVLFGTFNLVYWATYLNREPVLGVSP
- Sequence (P63079 26-473 partner): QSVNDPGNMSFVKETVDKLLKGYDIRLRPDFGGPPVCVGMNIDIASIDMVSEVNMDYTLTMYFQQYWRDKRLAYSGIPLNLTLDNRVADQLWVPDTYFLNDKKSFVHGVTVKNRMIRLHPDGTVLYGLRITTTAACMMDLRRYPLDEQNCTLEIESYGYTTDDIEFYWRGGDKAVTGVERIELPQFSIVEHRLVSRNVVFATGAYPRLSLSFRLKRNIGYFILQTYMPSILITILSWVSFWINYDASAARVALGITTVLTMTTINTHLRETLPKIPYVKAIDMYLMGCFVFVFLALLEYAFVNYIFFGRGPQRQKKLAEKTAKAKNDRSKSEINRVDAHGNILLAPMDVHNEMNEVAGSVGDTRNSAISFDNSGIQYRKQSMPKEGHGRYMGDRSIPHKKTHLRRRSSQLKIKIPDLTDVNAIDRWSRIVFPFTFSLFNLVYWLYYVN
- Sequence (P18508 39-466): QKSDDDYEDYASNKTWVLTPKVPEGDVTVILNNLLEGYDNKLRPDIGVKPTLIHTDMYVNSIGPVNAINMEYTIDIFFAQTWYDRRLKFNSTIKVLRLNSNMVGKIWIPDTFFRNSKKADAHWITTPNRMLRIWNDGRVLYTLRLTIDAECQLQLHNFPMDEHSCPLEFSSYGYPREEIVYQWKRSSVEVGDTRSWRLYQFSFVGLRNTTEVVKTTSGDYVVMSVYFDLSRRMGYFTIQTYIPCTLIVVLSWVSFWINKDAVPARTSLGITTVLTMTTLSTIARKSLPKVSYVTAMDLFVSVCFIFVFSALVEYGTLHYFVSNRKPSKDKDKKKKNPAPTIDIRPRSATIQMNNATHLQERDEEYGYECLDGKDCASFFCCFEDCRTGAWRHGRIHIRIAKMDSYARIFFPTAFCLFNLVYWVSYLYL
- Measurement Protocol: Two-electrode voltage clamp of GABA-induced chloride currents in Xenopus oocytes
- Assay type: cell-based
- Settings: 10 μM; α2β3γ2; ns = not significant
Measured Parameter: efficacy (% GABA EC3)
Field format: number, assumed % GABA EC3, no unit text.

Cc1nnc2ccc(-c3cccc(C(F)(F)F)c3)nn12
162
CN1CCN(C(=O)OC2c3nccnc3C(=O)N2c2ccc(Cl)cn2)CC1 (stereo not shown)
356
CC(C)(C)OC(=O)c1ncn2c1[C@@H]1CCCN1C(=O)c1c(Br)cccc1-2
129
CN1C(=O)CN=C(c2ccccc2)c2cc(Cl)ccc21
532

Now look at this entry.
Task: Any idea what efficacy (% GABA EC3) came out for `CCOC(=O)c1ncn2c1CN(C)C(=O)c1cc(F)ccc1-2` on recombinant rat α2β3γ2 receptors (Rattus norvegicus, UniProt P18508+P23576)?
Output: 133
